B1: IQUB (parent)
chain: KIREKEEWIKLDYHRRHNPKTNED

Variants of: B1
Assay: protein stability index of a GFP-peptide fusion (GPS, HEK-293T) (PSI 1-6); higher = more stable;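 also: lentivirally expressed fusions sorted by FACS into six bins by GFP to DsRed ratio, PSI derived from sequencing read proportions per bin multiplied by bin number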
Settings: c terminus: a fixed tail appended
Criterion: protein stability index meeting or surpassing 4. Met: yes. Not met: no.

Some solved entries appear below for comparison.
- variant: "E6M"
  discrete_label: "no"
- variant: "E6A"
  discrete_label: "no"
- variant: "K10D"
  discrete_label: "yes"
- variant: "D24T"
  discrete_label: "yes"
- variant: "H14T"
  discrete_label: "yes"

Query: Identify whether the reported protein stability index of the following variant is 4 or greater: `E4N`
Result: yes

# credit: the supplement of paper PMC10567573
